- Experiment notes: Terminal plasma and brain concentrations in AC-MES studies (UHPLC-MS/MS)
- Format: in vivo, mouse
- Run conditions: CF-1, mouse, in vivo, 20 mg/kg, Study 2D, Lacosamide 20 mg/kg PO, 2 h; read-out: Mean Brain
- Description: Sample Collection and Preparation: Mice were anesthetized by isoflurane inhalation (according to SOP TECH-018) until they reached a surgical plane of anesthesia. […] Plasma Samples: Extraction of plasma samples was carried out by protein precipitation using acetonitrile. […] The samples were analyzed by ultra-high performance liquid chromatography electrospray ionization tandem mass spectrometry (UHPLC-ESI-MS/MS) as described in the bioanalysis procedure below. […]
Outcome measure: concentration at 2 h (µM)
Express your answer in µM, writing the number without its unit.

Query (molecule): COC[C@@H](NC(C)=O)C(=O)NCc1ccccc1 [Lacosamide, reference compound] ; field requested: concentration at 2 h
26.8
